Target: His-tagged human recombinant kinase full-length Akt1 (Homo sapiens (Human), UniProt P31749)
Sequence (P31749 whole entry): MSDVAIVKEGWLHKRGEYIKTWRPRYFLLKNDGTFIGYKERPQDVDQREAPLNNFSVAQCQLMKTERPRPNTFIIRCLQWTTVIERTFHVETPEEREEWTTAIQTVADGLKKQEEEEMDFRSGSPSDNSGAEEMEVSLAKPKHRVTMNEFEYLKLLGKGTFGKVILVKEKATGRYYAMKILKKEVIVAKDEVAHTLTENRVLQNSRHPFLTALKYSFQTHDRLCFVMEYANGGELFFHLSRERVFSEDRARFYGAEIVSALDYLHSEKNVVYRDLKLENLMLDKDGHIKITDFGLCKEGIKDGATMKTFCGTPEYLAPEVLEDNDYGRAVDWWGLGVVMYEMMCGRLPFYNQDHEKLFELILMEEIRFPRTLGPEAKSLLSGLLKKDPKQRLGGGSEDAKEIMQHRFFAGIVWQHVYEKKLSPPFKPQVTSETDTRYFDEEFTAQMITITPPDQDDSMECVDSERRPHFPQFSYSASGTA
Test: Akt1 kinase assay (TR-FRET)
Settings: 10 μM ATP; read-out: Akt1, median IC50
pIC50: −log10 of the molar value.
Test readout: pIC50

Some solved entries appear below for comparison.
CC(C)NC(=O)c1ccc2nc(-c3ccc(C4(N)CCC4)cc3)c(-c3ccccc3)n2c1 | 5.77
CCOc1ccn2c(-c3ccccc3)c(-c3ccc(C4(N)CCC4)cc3)nc2n1 | 6.72
NC1(c2ccc(-c3nc4ccc(-c5cc[nH]n5)cn4c3-c3ccccc3)cc2)CCC1 | 6.77

P = NC1(c2ccc(-c3nc4c(C5CC5)cccn4c3-c3ccccc3)cc2)CCC1
Q = NC(=O)c1cccn2c(-c3ccccc3)c(-c3ccc(C4(N)CCC4)cc3)nc12
R = Cc1cc(C(N)=O)cn2c(-c3ccccc3)c(-c3ccc(C4(N)CCC4)cc3)nc12
S = Cn1cncc1-c1ccn2c(-c3ccccc3)c(-c3ccc(C4(N)CCC4)cc3)nc2c1
T = CCc1cnc2nc(-c3ccc(C4(N)CCC4)cc3)c(-c3ccccc3)n2c1
Output the entries ranked by pIC50 from maximum down to minimum. # the answer lists labels in the order requested
R, Q, P, S, T
